Values compiled from patent US11111217B2.

experiment: Caco-2 permeability assay; details: human, Caco-2, pH 7.4, with elacridar (concentration not stated)
parameter: Papp A→B at 2 h, 10 μM (×10⁻⁶ cm/s)

1) [2H]c1c([2H])c([2H])c2[nH]c(-c3ccc(C(C)(C)C)cc3)nc2c1[2H]
0.916

I. CC(=O)OCn1c(-c2ccc(C(C)(C)C)cc2)nc2ccccc21
II. CC(C)(C)c1ccc(-c2nc3cc(N)ccc3[nH]2)cc1
III. CC(C)(C)c1ccc(-c2nc3c(F)c(F)ccc3[nH]2)cc1
IV. CC(C)(C)c1ccc(-c2nc3ccccc3n2COP(=O)(O)O)cc1
Order the records by Papp A→B at 2 h, 10 μM, with each subsequent value no larger than the one before. Reply with the labels, ordered as the question asks.
II, I, III, IV
